The measured values listed here are drawn from patent US10526320B2.

- TARGET UNDER TEST: PPAR Alpha (Homo sapiens)
- Sequence (Q07869 whole entry): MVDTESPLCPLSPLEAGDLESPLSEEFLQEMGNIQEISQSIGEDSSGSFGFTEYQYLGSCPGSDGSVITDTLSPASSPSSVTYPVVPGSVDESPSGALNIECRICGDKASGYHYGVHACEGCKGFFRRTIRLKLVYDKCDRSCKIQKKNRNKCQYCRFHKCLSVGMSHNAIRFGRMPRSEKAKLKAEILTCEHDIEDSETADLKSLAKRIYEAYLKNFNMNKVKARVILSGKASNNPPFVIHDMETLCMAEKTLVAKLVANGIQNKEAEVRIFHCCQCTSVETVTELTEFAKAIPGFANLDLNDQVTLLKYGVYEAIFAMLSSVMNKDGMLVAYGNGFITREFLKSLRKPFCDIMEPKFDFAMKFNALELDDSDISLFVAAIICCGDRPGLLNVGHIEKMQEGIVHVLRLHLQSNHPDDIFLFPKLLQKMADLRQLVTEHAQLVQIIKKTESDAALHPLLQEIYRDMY
- RUN DESCRIPTION: PathHunter NHR protein interaction / nuclear translocation agonist test, PPAR Alpha
- Type: cell-based
- EXPERIMENTAL SETUP: agonist mode; read-out: PPAR Alpha EC50
pEC50: −log10 of the molar value.
Known pEC50 of a selection of molecules

| MOLECULE | TARGET UNDER TEST | REPORTED ENDPOINT | RESULT |
| --- | --- | --- | --- |
| CSc1ccc(C(=O)C2CN(C(=O)Oc3ccc(Br)cc3)CC2Cc2cc(C)c(OC(C)(C)C(=O)O)c(C)c2)cc1 (stereo not shown) | PPAR Alpha (Homo sapiens) | pEC50 | > 7.00 |

What is its pEC50 for PPAR Alpha (Homo sapiens)? Entry: CSc1ccc(C(=O)C2CN(C(=O)Oc3ccc(C)cc3)CC2c2cc(C)c(OC(C)(C)C(=O)O)c(C)c2)cc1 (single isomer, unassigned)
> 7.00

What is its pEC50 for PPAR Alpha (Homo sapiens)? Entry: COC(=O)N1C[C@@H](C(=O)c2ccc(SC)cc2)[C@H](c2cc(C)c(OC(C)(C)C(=O)O)c(C)c2)C1 (single isomer, unassigned) [Compound 5]
< 6.60

What is its pEC50 for PPAR Alpha (Homo sapiens)? Entry: COC(=O)N1CC(Cc2ccc(SC)cc2)C(c2cc(C)c(OC(C)(C)C(=O)O)c(C)c2)C1 (single isomer, unassigned) [Compound 22]
< 6.60

----------
- TARGET UNDER TEST: PPAR Alpha (Homo sapiens)
- RUN DESCRIPTION: PathHunter NHR protein interaction / nuclear translocation agonist test, PPAR Alpha
- Assay type: cell-based
- EXPERIMENTAL SETUP: read-out: PPAR Alpha Maximum Activation Response %
REPORTED ENDPOINT: Emax

Find the recorded Emax belonging to CSc1ccc(C(=O)C2CN(C(=O)Oc3ccc(Cl)cc3)CC2c2cc(C)c(OC(C)(C)C(=O)O)c(C)c2)cc1 (single isomer, unassigned) [Compound 13] and report it.
50 to 80%

Find the recorded Emax belonging to CSc1ccc(C(=O)C2CN(C(=O)Oc3ccc(F)cc3)CC2Cc2cc(C)c(OC(C)(C)C(=O)O)c(C)c2)cc1 (single isomer, unassigned) [Compound 28] and report it.
80 to 100%

Find the recorded Emax belonging to COC(=O)N1CC(CCc2cc(C)c(OC(C)(C)C(=O)O)c(C)c2)C(C(=O)c2ccc(SC)cc2)C1 (single isomer, unassigned) [Compound 57] and report it.
80 to 100%

Find the recorded Emax belonging to CSc1ccc(C(=O)C2CN(C(=O)c3ccccc3)CC2c2cc(C)c(OC(C)(C)C(=O)O)c(C)c2)cc1 (single isomer, unassigned) [Compound 16] and report it.
80 to 100%

Find the recorded Emax belonging to CSc1ccc(C(=O)[C@H]2CN(C)C[C@@H]2c2cc(C)c(OC(C)(C)C(=O)O)c(C)c2)cc1 (racemic) [Compound 1] and report it.
< 50%

Find the recorded Emax belonging to CCOC(=O)N1CC(C(=O)c2ccc(SC)cc2)C(c2cc(C)c(OC(C)(C)C(=O)O)c(C)c2)C1 (single isomer, unassigned) [Compound 6] and report it.
50 to 80%

Find the recorded Emax belonging to CSc1ccc(C(=O)[C@H]2CN(C(=O)OCCC(C)C)C[C@@H]2CCc2cc(C)c(OC(C)(C)C(=O)O)c(C)c2)cc1 (racemic) [Compound 72] and report it.
80 to 100%

Find the recorded Emax belonging to CSc1ccc(C(=O)C2CN(C(=O)Oc3ccccc3)CC2Cc2ccc(OC(C)(C)C(=O)O)cc2)cc1 (single isomer, unassigned) [Compound 76] and report it.
80 to 100%
